Listing of entries alongside the reported pIC50.
biological target: UniProtKB Q99594; experiment: TEAD lipid pocket TR-FRET (Lipid HTRF) probe competition assay; type: binding; conditions: 4 hours incubation with compound
Sequence (Q99594 whole entry, species assumed): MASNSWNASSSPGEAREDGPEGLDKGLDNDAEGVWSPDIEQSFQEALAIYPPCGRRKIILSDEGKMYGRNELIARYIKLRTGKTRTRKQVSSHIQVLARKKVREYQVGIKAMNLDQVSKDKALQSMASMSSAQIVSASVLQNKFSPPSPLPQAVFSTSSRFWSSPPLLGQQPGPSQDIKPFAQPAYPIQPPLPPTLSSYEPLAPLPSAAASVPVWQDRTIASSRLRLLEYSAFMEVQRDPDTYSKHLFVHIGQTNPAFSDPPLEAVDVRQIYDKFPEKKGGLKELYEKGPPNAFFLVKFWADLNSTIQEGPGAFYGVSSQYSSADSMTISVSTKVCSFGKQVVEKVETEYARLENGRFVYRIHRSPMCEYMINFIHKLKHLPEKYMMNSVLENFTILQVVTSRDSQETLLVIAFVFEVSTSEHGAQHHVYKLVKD
Scale explanation: pIC50 corresponds to minus log10 of a concentration expressed in moles per litre.

C=C(CNc1cc(-c2ccc(OC(F)(F)F)cc2)c2ncsc2c1C#N)C(=O)NO :: 6.18
C=C(CNc1cc(-c2ccc(OC(F)(F)F)cc2)c2c(c1C#N)CCO2)C(N)=O :: 5.92
C=C(CNc1cc(-c2ccc(S(F)(F)(F)(F)F)cc2)c2c(c1C#N)CCO2)C(=O)NO :: 6.15
C=C(CNc1cc(-c2ccc(OC(F)(F)F)cc2)c2c(c1C#N)CCO2)C(=O)N(C)O :: 4.74
[2H]C1([2H])Cc2c(C#N)c(NCC(=C)C(=O)NO)cc(-c3ccc(OC(F)(F)F)cc3)c2O1 :: 6.38

Proceed to the following item.
Sample C=C(CNc1cc(-c2ccc(S(F)(F)(F)(F)F)cc2)c2c(c1C#N)CCO2)C(N)=O ; pIC50 observed: 5.59

====

target: TEAD2 (Homo sapiens (Human), UniProt Q15562); experiment: TEAD lipid pocket TR-FRET (Lipid HTRF) probe competition assay; format: binding; conditions: 4 hours incubation with compound; read-out: Lipid HTRF TEAD2 IC50
Sequence (Q15562 whole entry): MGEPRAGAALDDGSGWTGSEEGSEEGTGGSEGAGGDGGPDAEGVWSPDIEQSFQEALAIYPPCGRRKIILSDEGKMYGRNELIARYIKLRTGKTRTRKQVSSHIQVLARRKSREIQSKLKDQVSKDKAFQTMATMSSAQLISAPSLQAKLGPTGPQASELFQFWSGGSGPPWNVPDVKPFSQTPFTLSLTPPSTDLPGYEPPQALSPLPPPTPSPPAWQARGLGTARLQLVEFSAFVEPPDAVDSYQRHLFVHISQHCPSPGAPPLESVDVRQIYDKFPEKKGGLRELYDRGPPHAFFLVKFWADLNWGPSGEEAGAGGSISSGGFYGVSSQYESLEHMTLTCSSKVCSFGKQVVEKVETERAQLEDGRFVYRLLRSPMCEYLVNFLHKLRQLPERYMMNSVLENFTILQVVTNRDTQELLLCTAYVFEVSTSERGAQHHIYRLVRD
measurement_name: pIC50
Scale explanation: pIC50 corresponds to minus log10 of a concentration expressed in moles per litre.

C=C(CNc1cc(-c2ncc(C(C)C)s2)c2c(c1C#N)CCO2)C(=O)O :: 6.62
C=C(CNc1cc(-c2ccc(OC(F)(F)F)cc2)c2c(c1CO)CCO2)C(=O)NO :: 8.00
C=C(CNc1cc(-c2ccc(OC(F)(F)F)cc2)c2c(c1C#N)CCO2)C(=O)NO :: 8.00
C=C(CNc1cc(-n2ccc(C(C)C)n2)c2c(c1C#N)CCO2)C(=O)NO :: 6.15
C=C(CNc1cc(-c2ccc(S(F)(F)(F)(F)F)cc2)c2ncsc2c1C#N)C(=O)NO :: 7.52

Sample [2H]C1([2H])COc2c(-c3ccc(C(C)C)cc3)cc(NCC(=C)C(N)=O)c(C#N)c21 ; pIC50 observed: 7.22

Sample C=C(CNc1cc(-c2ccc(OC(F)(F)F)cc2)c2c(c1C#N)CCO2)C(N)=O ; pIC50 observed: 7.40

Sample C=C(CNc1cc(-c2ncc(C(C)C)s2)c2c(c1C#N)CCO2)C(=O)NO ; pIC50 observed: 6.96

====

biological target: TEAD2 YAP50-100 (Homo sapiens (Human)); test: TEAD-YAP protein-protein interaction HTRF assay; conditions: TEAD2 YAP50-100 HTRF combined EC50, 30 mins incubation with compound
Sequence (Q15562 217-447): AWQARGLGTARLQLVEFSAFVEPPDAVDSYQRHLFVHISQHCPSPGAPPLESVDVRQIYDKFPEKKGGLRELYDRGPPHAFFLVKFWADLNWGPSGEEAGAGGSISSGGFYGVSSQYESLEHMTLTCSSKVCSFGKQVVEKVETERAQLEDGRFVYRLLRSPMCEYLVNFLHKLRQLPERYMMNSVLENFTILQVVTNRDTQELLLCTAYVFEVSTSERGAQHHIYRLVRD
I'd appreciate it if you marked entries Met when EC50 is lower than 50 nM and Not met when it is not.

Some entries whose results are on file:
C=C(CNc1cc2c(c(-c3ccc(C(C)C)cc3)c1)OCC2)C(=O)O :: Not met
C=C(CNc1cc(-c2ccc(C(C)C)cc2)c2c(c1CO)CCO2)C(N)=O :: Met
C=C(CNc1cc(-c2ccc(C(C)C)cc2)c2c(c1C#N)CCO2)C(=O)O :: Met

Consider the compound C=C(CNc1cc(-c2ccc(C(C)C)cc2)c2c(c1S(C)(=O)=O)CCO2)C(=O)O . Is its EC50 strictly less than 50 nM? Not met
